Exercise: state measured IC50 for each of the compounds provided.
# Tested On: Acetylcholinesterase (Electrophorus electricus)
# Sequence (O42275 whole entry): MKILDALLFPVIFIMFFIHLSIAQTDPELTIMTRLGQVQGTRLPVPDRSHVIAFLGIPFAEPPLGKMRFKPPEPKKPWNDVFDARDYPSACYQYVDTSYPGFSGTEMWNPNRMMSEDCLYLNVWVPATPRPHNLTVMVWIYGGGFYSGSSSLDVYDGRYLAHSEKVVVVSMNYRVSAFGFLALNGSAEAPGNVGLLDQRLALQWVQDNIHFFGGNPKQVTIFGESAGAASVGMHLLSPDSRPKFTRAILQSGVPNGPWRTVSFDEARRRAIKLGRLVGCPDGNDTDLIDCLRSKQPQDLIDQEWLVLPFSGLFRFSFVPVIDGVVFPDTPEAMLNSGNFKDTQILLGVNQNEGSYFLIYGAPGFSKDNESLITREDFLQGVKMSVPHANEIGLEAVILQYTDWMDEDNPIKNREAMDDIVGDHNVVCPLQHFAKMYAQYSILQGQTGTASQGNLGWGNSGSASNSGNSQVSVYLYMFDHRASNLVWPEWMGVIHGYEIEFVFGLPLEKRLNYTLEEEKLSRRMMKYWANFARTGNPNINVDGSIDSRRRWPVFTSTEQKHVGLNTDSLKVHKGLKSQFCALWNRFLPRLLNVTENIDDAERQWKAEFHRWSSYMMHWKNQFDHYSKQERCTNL
Supply the numeric figure in nM, leaving out any unit text.

Query block: Kindly indicate its recorded IC50. Item: Fc1ccc2c(C3CCN(CCN4CCCCC4)CC3)noc2c1
Result block: 1500

Query block: Kindly indicate its recorded IC50. Item: Fc1ccc2c(C3CCN(CCN4CCCC4)CC3)noc2c1
Result block: 2510

====

# Tested On: D(2) dopamine receptor (Rattus norvegicus)
# Sequence (P61169 whole entry): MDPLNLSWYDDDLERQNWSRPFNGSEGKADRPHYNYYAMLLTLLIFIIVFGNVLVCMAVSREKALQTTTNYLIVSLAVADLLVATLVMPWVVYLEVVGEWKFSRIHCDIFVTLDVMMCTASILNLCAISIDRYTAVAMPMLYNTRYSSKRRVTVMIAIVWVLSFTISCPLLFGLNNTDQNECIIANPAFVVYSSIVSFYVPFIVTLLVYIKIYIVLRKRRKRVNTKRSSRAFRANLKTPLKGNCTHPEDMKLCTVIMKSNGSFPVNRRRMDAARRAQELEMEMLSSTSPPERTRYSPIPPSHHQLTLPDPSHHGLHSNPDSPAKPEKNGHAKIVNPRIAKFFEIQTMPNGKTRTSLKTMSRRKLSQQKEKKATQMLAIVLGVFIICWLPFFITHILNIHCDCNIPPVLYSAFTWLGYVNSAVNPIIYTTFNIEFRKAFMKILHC
# Run Description: Displacement of [3H]methylspiperone from D2 receptor in rat striatal membranes
# Assay type: cell membranes, Striatum, Membrane
Measure: pIC50
pIC50 is a log-scale quantity: -log10 of the concentration expressed in molar.

Query block: Kindly indicate its recorded pIC50. Item: O=C1c2ccc(OCCCN3CCC(c4noc5cc(F)ccc45)CC3)cc2OCC1CO (stereo unspecified)
Result block: 7.77

====

Exercise: state measured IC50 for each of the compounds provided.
# Tested On: Acetylcholinesterase (Homo sapiens, UniProt P22303)
# Sequence (P22303 whole entry): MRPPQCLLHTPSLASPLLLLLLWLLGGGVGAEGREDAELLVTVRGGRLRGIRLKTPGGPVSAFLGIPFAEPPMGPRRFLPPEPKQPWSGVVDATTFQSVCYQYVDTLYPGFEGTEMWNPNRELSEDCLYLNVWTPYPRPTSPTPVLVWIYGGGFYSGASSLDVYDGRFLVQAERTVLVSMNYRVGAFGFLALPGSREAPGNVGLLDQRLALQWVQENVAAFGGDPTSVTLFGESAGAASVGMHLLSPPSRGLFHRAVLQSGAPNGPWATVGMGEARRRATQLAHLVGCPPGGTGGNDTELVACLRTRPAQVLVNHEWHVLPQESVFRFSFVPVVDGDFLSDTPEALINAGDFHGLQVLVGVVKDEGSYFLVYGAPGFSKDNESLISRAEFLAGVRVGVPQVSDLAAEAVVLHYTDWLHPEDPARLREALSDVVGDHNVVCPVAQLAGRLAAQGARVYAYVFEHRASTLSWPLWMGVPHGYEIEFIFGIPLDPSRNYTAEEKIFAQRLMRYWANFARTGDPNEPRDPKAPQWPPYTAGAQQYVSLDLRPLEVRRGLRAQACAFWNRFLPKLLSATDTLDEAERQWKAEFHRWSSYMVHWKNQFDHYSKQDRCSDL
# Run Description: Inhibition of human serum AChE
Supply the numeric figure in µM, leaving out any unit text.

Query block: Fill in: IC50 on Acetylcholinesterase (Homo sapiens, UniProt P22303), entry Fc1ccc2c(C3CCN(CCN4CCCC4)CC3)noc2c1
Result block: 3.29

Query block: Fill in: IC50 on Acetylcholinesterase (Homo sapiens, UniProt P22303), entry Fc1ccc2c(C3CCN(CCN4CCCCC4)CC3)noc2c1
Result block: 2.22

====

# Tested On: 5-hydroxytryptamine receptor 2A (Rattus norvegicus, UniProt P14842)
# Sequence (P14842 whole entry): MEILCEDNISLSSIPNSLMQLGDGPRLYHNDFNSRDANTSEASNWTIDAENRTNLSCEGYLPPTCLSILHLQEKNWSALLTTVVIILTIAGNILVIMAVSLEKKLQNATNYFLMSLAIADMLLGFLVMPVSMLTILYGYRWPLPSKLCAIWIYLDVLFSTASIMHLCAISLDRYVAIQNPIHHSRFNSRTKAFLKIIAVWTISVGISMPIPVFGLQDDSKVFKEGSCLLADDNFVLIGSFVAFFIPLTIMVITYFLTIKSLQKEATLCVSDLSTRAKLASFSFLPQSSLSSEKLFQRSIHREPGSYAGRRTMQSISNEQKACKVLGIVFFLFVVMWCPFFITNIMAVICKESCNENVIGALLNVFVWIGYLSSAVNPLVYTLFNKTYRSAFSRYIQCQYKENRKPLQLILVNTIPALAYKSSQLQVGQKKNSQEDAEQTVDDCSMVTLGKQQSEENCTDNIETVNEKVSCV
# Run Description: Displacement of [3H]ketanserin from 5-HT2A receptor in rat frontal cortex membranes
Measure: IC50 (nM)
Supply the numeric figure in nM, leaving out any unit text.

Query block: Fill in: IC50 on 5-hydroxytryptamine receptor 2A (Rattus norvegicus, UniProt P14842), entry O=C1c2ccc(OCCCN3CCC(c4noc5cc(F)ccc45)CC3)cc2OCC1CO (stereo unspecified)
Result block: 6.2
